# Test target: UniProt:Q01959
# Sequence (Q01959 whole entry): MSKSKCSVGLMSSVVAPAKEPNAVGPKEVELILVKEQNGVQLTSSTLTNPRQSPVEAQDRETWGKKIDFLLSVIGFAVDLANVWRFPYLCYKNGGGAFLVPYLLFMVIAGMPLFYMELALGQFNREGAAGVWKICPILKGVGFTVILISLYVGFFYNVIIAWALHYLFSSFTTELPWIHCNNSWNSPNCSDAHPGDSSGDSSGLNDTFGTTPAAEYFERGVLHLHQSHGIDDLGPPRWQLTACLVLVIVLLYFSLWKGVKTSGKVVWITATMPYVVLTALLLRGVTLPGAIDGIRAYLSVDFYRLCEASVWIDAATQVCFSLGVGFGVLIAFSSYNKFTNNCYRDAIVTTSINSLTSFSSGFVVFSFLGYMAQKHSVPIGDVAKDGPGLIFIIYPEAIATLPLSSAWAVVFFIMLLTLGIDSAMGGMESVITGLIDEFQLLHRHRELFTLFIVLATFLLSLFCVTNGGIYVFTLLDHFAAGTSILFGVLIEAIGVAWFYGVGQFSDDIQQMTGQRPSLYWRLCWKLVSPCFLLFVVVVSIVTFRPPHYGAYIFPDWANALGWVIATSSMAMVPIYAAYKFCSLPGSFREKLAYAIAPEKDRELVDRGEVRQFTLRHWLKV
# Experiment summary: Inhibition of radiolabeled dopamine reuptake at human DAT expressed in HEK293 cells
pIC50: −log10 of the molar value.
Quantity measured: pIC50

CCCCN(Cc1ccc2ccccc2c1)[C@H]1CCNC1	7.06
Fc1ccc2cc(CO[C@@H]3CCNC3)ccc2c1	5.68
Fc1ccc2cc(CCN3CCNCC3)ccc2c1	4.62
N#Cc1ccc2cc(CO[C@H]3CCNC3)ccc2c1	6.06

[A] c1ccc2cc(CN(C3CCC3)C3CCNCC3)ccc2c1
[B] CN(Cc1ccc2ccccc2c1)[C@@H]1CCNC1
[C] c1ccc2cc(CO[C@H]3CCNC3)ccc2c1
[D] c1ccc2cc(OCC3CCNC3)ccc2c1 (racemic)
hey, can you rank those compounds up there by pIC50? biggest number first please Give the order by naming the labels one after another as requested. A, D, B, C

[a] N#Cc1ccc2ccc(OCC3CCNCC3)cc2c1
[b] CCCCN(C1CCNCC1)S(=O)(=O)c1ccc2ccccc2c1
// which entry reports the smaller pIC50, a or b ? Output the label that corresponds to your choice. b
